test: Stability experiment (storage of crystal forms, HPLC); assay type: physicochemical; details: 60° C. 21 d
measure name: RRT (%) 1.00

> print(dat)
                                   molecule  meas.value
1  Cc1cc(N2CCN(Cc3cc(F)c(C(=O)NS(=O)(=O)C4CC4)cc3Cl)CC2)ccc1Cl [crystal form E-3]      99.71%
2  Cc1cc(N2CCN(Cc3cc(F)c(C(=O)NS(=O)(=O)C4CC4)cc3Cl)CC2)ccc1Cl [crystal form D]      99.91%
3  Cc1cc(N2CCN(Cc3cc(F)c(C(=O)NS(=O)(=O)C4CC4)cc3Cl)CC2)ccc1Cl [crystal form F]      99.80%
4  Cc1cc(N2CCN(Cc3cc(F)c(C(=O)NS(=O)(=O)C4CC4)cc3Cl)CC2)ccc1Cl [crystal form A]      99.82%
